Examples of binders with documented kon follow.
Target: T1, TAMRA-labeled effector peptide cs221B (5(6)-TAMRA label coupled on resin after synthesis)
T1 construct: also called TAMRA-cs221B
T1 peptide: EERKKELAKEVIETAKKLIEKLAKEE
Experiment: fluorescence polarization kinetics; slope of kapp against hinge concentration
Record the value in M⁻¹ s⁻¹, omitting the unit from your answer.

>>> measured("hinge cs221 (designed binder, also called original cs221; parent hinge without cysteines) MSGEMKEEIRRLAEELRERTKDEEVRELAREAARLAEESDDEEVKEVVKKALEAALKSKDEEVIRLLLLAAVLAAAAARSGSPEEKLEIAKKALELAMKSKDEEVIRLALLAAVLAARSDDEEVLKKVKEALEKAMESKDVEEIRERLREAVEVARAGSGSHHWGSTHHHHHH")
3400
>>> measured("cs221_V111L (designed binder, Point mutant of hinge cs221) MSGEMKEEIRRLAEELRERTKDEEVRELAREAARLAEESDDEEVKEVVKKALEAALKSKDEEVIRLLLLAAVLAAAAARSGSPEEKLEIAKKALELAMKSKDEEVIRLALLAALLAARSDDEEVLKKVKEALEKAMESKDVEEIRERLREAVEVARAGSGSHHWGSTHHHHHH")
24300

I'd like to know its kon. The binder in question is cs221_V111L_A114T (designed binder, Double mutant of hinge cs221; also called cs221-mut) MSGEMKEEIRRLAEELRERTKDEEVRELAREAARLAEESDDEEVKEVVKKALEAALKSKDEEVIRLLLLAAVLAAAAARSGSPEEKLEIAKKALELAMKSKDEEVIRLALLAALLATRSDDEEVLKKVKEALEKAMESKDVEEIRERLREAVEVARAGSGSHHWGSTHHHHHH
76200
